I'd appreciate it if you could supply melting point values for the items below.
Give bare numbers, in °C.

Example compounds with recorded melting point:
Cc1ccncc1NC(=O)c1cnn2c1C(=O)N(c1ccc(C(F)(F)F)c(C)c1)C[C@@H]2C [compound 38]	186.5
C[C@H]1CN(c2ccc(C(F)(F)F)cc2)C(=O)c2c(C(=O)Nc3ncccn3)cnn21 [compound 103]	248.3
COc1cncc(NC(=O)c2cnn3c2C(=O)N(c2ccc(C(F)(F)F)cc2)C[C@@H]3C)c1 [compound 144]	197.8

Next compound, please.
Incoming: Suppose we examine the compound Cc1ccncc1NC(=O)c1cnn2c1C(=O)N(c1ccc(Cl)c(Cl)c1)C[C@@H]2C [compound 30] ; what melting point value has been reported?
Outgoing: 225

----------
# System: rats
# assay explanation: Reversal of the effect of the mGluR2 PAM JNJ-42153605-induced inhibition of scopolamine-induced hyperlocomotion
# Format: in vivo, rat
# particulars: Rattus norvegicus; rats, route PO, criterion total distance >1500 cm; read-out: ED50 SCOP JNJ-42153605 (Reversal of the effect of JNJ 42153605 on scopolamine-induced hyperlocomotion)
What ED50 was measured for each of the following?

Please review the following examples before continuing.
Cc1cc(N2C[C@H](C)n3ncc(C(=O)Nc4cnccn4)c3C2=O)ccc1Cl	> 0.63 mg/kg
Cc1cc(N2C[C@H](C)n3ncc(C(=O)Nc4cncc(F)c4)c3C2=O)ccc1C(F)(F)F	0.32 mg/kg
C[C@H]1CN(c2ccc(C(F)(F)F)cc2)C(=O)c2c(C(=O)Nc3ccncn3)cnn21	> 2.5 mg/kg

Next molecule, ED50 to be filled in.
Incoming: Given the entry `C[C@H]1CN(c2ccc(C(F)(F)F)cc2)C(=O)c2c(C(=O)Nc3nccs3)cnn21` , report its measured ED50.
Outgoing: > 2.5 mg/kg

----------
measurement kind: melting point (°C)
Numbers only, in °C.

// below: answered compounds
Cc1cc(N2C[C@H](C)n3ncc(C(=O)Nc4cncc(F)c4C)c3C2=O)ccc1C(F)(F)F	156.83
C[C@H]1CN(c2ccc(C(F)(F)F)cc2)C(=O)c2c(C(=O)Nc3cccnc3)cnn21	167.35
C[C@H]1CN(c2ccc(C(F)(F)F)cc2)C(=O)c2c(C(=O)NC3CCCCC3)cnn21	209.8

Incoming: // melting point lookup, key: `C[C@H]1CN(c2ccc(C(F)(F)F)c(Cl)c2)C(=O)c2c(C(=O)Nc3cncc(F)c3)cnn21`
Outgoing: 168.1

----------
# target under test: UniProtKB Q14416
# Sequence (Q14416 19-872): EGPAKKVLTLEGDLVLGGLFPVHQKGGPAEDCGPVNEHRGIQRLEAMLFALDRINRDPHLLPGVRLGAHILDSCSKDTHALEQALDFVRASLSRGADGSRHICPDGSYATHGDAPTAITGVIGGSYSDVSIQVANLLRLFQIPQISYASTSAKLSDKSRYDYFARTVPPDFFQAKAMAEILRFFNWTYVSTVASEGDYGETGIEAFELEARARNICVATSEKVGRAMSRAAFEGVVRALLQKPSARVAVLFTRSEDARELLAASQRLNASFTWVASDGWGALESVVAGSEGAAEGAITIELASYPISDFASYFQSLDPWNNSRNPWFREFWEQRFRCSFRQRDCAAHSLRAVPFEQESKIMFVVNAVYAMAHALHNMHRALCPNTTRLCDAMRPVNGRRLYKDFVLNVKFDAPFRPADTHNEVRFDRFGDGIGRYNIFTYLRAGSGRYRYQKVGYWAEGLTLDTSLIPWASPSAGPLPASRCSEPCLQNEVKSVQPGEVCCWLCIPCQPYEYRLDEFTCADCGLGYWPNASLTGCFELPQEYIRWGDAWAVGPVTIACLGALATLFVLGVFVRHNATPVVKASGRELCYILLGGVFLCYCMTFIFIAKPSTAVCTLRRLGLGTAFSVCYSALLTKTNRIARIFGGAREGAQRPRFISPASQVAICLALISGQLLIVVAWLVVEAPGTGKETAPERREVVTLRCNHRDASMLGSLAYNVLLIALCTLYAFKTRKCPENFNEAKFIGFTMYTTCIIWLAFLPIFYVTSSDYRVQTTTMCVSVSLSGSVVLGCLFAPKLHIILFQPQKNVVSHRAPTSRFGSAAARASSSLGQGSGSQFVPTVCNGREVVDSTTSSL
# assay explanation: [35S]GTPγS binding assay, mGluR2 negative allosteric modulation (membranes from CHO cells transfected with human mGlu2 receptor, glutamate ~EC80 60 μM);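 also: membranes preincubated 30 min at 30 °C with compound plus glutamate, then [35S]GTPγS (0.1 nM) incorporation measured over another 30 min at 30 °C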
# particulars: GTPγS - hmGluR2 anGT pIC50, membranes with human mGlu2 receptor, glutamate ~EC80 (60 μM); pIC50 = -log IC50 (M)
measurement kind: log10(IC50) (log10 of the value in M)
Hi team, quick reminder: these entries are log10 of IC50 (M).

Below, 5 compounds whose answers are already recorded.
Cc1cc(NC(=O)c2cnn3c2C(=O)N(c2ccc(C(F)(F)F)cn2)C[C@@H]3C)ccn1	-8.07
O=C(Nc1cccnc1)c1cnn2c1C(=O)N(c1ccc(C(F)(F)F)cc1)CC2	-6.91
COc1cncc(NC(=O)c2cnn3c2C(=O)N(c2ccc(C(F)(F)F)cc2)C[C@@H]3C)c1	-8.32
C[C@H]1CN(c2ccc(C(F)(F)F)cc2)C(=O)c2c(C(=O)Nc3ccc(F)nc3)cnn21	-8.25
Cc1cc(NC(=O)c2cnn3c2C(=O)N(c2ccc(Cl)cc2)C[C@@H]3C)ccn1	-7.98

List reported log10(IC50) for each of these compounds:
1. C[C@H]1CN(c2ccc(C(F)(F)F)c(F)c2)C(=O)c2c(C(=O)Nc3ccc(F)cn3)cnn21
2. C[C@H]1CN(c2ccc(C(F)(F)F)cc2)C(=O)c2c(C(=O)NCc3ccccc3)cnn21
3. C[C@H]1CN(c2ccc(C(F)(F)F)cc2)C(=O)c2c(C(=O)Nc3ccccc3)cnn21
4. C[C@H]1CN(c2ccc(C(F)(F)F)cc2)C(=O)c2c(C(=O)Nc3ccnc(CF)c3)cnn21
5. Cc1c(F)cncc1NC(=O)c1cnn2c1C(=O)N(c1ccc(C(F)(F)F)cc1)C[C@@H]2C

Outgoing:
1: -7.87; 2: -6.70; 3: -8.77; 4: -8.57; 5: -8.65

Provide reported log10(IC50) for each item, in the same order as listed.
1. Cc1cc(N2C[C@H](C)n3ncc(C(=O)Nc4cncc(F)c4)c3C2=O)ccc1C(F)(F)F
2. Cc1cc(N2C[C@H](C)n3ncc(C(=O)Nc4cncc(F)c4C)c3C2=O)ccc1C(F)(F)F
3. COc1ccc(NC(=O)c2cnn3c2C(=O)N(c2ccc(C(F)(F)F)c(OC)n2)C[C@@H]3C)cc1
4. Cc1cncc(NC(=O)c2cnn3c2C(=O)N(c2ccc(C(F)(F)F)c(C)c2)C[C@@H]3C)c1
5. Cc1c(F)cncc1NC(=O)c1cnn2c1C(=O)N(c1ccc(C(F)(F)F)c(Cl)c1)C[C@@H]2C
6. C[C@H]1CN(c2ccc(C(F)(F)F)c(F)c2)C(=O)c2c(C(=O)Nc3cncc(F)c3)cnn21
7. Cc1cc(N2C[C@H](C)n3ncc(C(=O)Nc4cnccn4)c3C2=O)ccc1C(F)(F)F
8. Cc1cc(N2C[C@H](C)n3ncc(C(=O)Nc4cncc(F)c4C)c3C2=O)ccc1Cl

Outgoing:
1. -9.03
2. -8.63
3. -8.01
4. -9.14
5. -9.04
6. -8.49
7. -8.95
8. -8.78
